tested on: behaviors of compound-treated mice; assay: Neuropharmacological Assay (SmartCube); assay type: in vivo; conditions: i.p. 15 min before behavioral test, most efficacious dose(s) of 3 doses
Counter-ions that a name gives are not always drawn.
metric_name: DP: anti-depressant (probability that activity matches class)

Some molecules with known DP: anti-depressant (probability that activity matches class) results, for comparison:
{"molecule": "NC[C@@H]1OCCc2c(-c3cnco3)cccc21 (single isomer, unassigned) [Compound 98, hydrochloride salt]", "result": "++++ (50% ≤ ++++)"}
{"molecule": "CNC[C@H]1OCCc2ccc(-c3ccncc3)cc21 [Compound 50, hydrochloride]", "result": "++ (5% ≤ ++ <25%)"}
{"molecule": "CNC[C@H]1OCCc2cc(-c3cccnc3)ccc21 [Compound 6, bis-hydrochloride]", "result": "+++ (25% ≤ +++ <50%)"}
{"molecule": "CNCC1OCCc2c(-c3cnoc3)cccc21 (centres unmarked) [Compound 65, hydrochloride salt]", "result": "++++ (50% ≤ ++++)"}
{"molecule": "CNC[C@H]1OCCc2c(-c3c[nH]cn3)cccc21 (single isomer, unassigned) [Compound 115, hydrochloride salt]", "result": "+ (LOQ ≤ + <5%)"}

# lookup: DP: anti-depressant (probability that activity matches class) of NC[C@H]1OCCc2c(-c3ccncn3)cccc21 (single isomer, unassigned) [Compound 75, hydrochloride salt]
++++ (50% ≤ ++++)

# lookup: DP: anti-depressant (probability that activity matches class) of NC[C@H]1OCCc2c(-c3cnco3)cccc21 (single isomer, unassigned) [Compound 99, hydrochloride salt]
+ (LOQ ≤ + <5%)

# lookup: DP: anti-depressant (probability that activity matches class) of NC[C@@H]1OCCc2c(-c3ccccc3)cccc21 (single isomer, unassigned) [Compound 130, hydrochloride salt]
++ (5% ≤ ++ <25%)

# lookup: DP: anti-depressant (probability that activity matches class) of CNC[C@H]1OCCc2c(-c3cnoc3)cccc21 (single isomer, unassigned) [Compound 85, hydrochloride salt]
++++ (50% ≤ ++++)

# lookup: DP: anti-depressant (probability that activity matches class) of Cc1cc(-c2cccc3c2CCO[C@@H]3CN)cc(C)n1 [Compound 127, dihydrochloride]
++ (5% ≤ ++ <25%)

----------
test system: behaviors of compound-treated mice; test: Neuropharmacological Assay (SmartCube); assay type: in vivo; details: Mus musculus, ip, 0.25 h, dose having 50% or more total activity in SmartCube, i.p., read-out: MED (minimal effective dose)
metric_name: minimal effective dose

# lookup: minimal effective dose of NC[C@H]1OCCCc2c(-c3ccncn3)cccc21 (single isomer, unassigned)
10 to 30 mg/kg

----------
# minimal effective dose annotations
system: behaviors of compound-treated mice; assay: Neuropharmacological Assay (SmartCube); type: in vivo; settings: Mus musculus, ip, 0.25 h, dose having 50% or more total activity in SmartCube, i.p., read-out: MED (minimal effective dose)
Counter-ions that a name gives are not always drawn.

{"molecule": "CNCC1OCCc2c(-c3ccnnc3)cccc21 (stereo not drawn) [Compound 54, hydrochloride salt]", "study_system": "behaviors of compound-treated mice", "minimal effective dose": "3 to 10 mg/kg"}

# lookup: minimal effective dose of NC[C@@H]1OCCCc2c(-c3ccccn3)cccc21 [Compound 158, hydrochloride salt]
10 to 30 mg/kg

----------
test system: behaviors of compound-treated mice; test: Neuropharmacological Assay (SmartCube); assay type: in vivo; details: Mus musculus, ip, 0.25 h, dose having 50% or more total activity in SmartCube, read-out: MED (minimal effective dose)
Counter-ions that a name gives are not always drawn.
metric_name: minimal effective dose

{"compound": "c1cc(-c2ccncc2)c2c(c1)[C@@H](CNC1CC1)OCC2 (single isomer, unassigned) [Compound 181, hydrochloride salt]", "study_system": "behaviors of compound-treated mice", "minimal effective dose": "≤ 3 mg/kg"}
{"compound": "CNC[C@@H]1OCCc2c1cccc2-n1cccn1", "study_system": "behaviors of compound-treated mice", "minimal effective dose": "10 to 30 mg/kg"}

# ---- query compound ----
# lookup: minimal effective dose of NC[C@H]1OCCc2c1cccc2-n1ccnc1 [Compound 185, hydrochloride salt]
10 to 30 mg/kg

----------
# minimal effective dose annotations
test system: behaviors of compound-treated mice; assay: Neuropharmacological Assay (SmartCube); format: in vivo; conditions: Mus musculus, ip, 0.25 h, dose having 50% or more total activity in SmartCube, i.p., read-out: MED (minimal effective dose)
Structures can show the parent of a compound that is named as a salt.

Some compounds with known minimal effective dose results, for comparison:
{"compound": "CNC[C@@H]1OCCc2c(-c3cnccn3)cccc21 (single isomer, unassigned)", "minimal effective dose": "3 to 10 mg/kg"}
{"compound": "CNC[C@@H]1OCCc2c(-c3ccncc3)cccc21 [Compound 17, dihydrochloride salt]", "minimal effective dose": "≤ 3 mg/kg"}
{"compound": "NC[C@@H]1OCCCc2c(-c3ccncn3)cccc21 (single isomer, unassigned)", "minimal effective dose": "10 to 30 mg/kg"}
{"compound": "CNC[C@@H]1OCCc2c(-c3ncc[nH]3)cccc21 [Compound 110, hydrochloride salt]", "minimal effective dose": "10 to 30 mg/kg"}
{"compound": "NCC1OCCc2c(-c3ccnnc3)cccc21 (stereo not drawn) [Compound 61, hydrochloride salt]", "minimal effective dose": "10 to 30 mg/kg"}
{"compound": "CNC[C@H]1OCCCc2c(-c3cncs3)cccc21 (single isomer, unassigned) [Compound 169, hydrochloride salt]", "minimal effective dose": "10 to 30 mg/kg"}
{"compound": "NC[C@H]1OCCc2cccc(-c3cccnc3)c21 (single isomer, unassigned) [Compound 10, hydrochloride]", "minimal effective dose": "10 to 30 mg/kg"}
{"compound": "CNCC1OCCc2c(-c3ccncn3)cccc21 (stereo not drawn) [Compound 53, hydrochloride salt]", "minimal effective dose": "3 to 10 mg/kg"}
{"compound": "CNC[C@@H]1OCCc2c(-c3cc(C)nc(C)c3)cccc21 [Compound 124, dihydrochloride]", "minimal effective dose": "10 to 30 mg/kg"}
{"compound": "CNC[C@H]1OCCc2c(-c3ccon3)cccc21 (single isomer, unassigned) [Compound 91, hydrochloride salt]", "minimal effective dose": "≤ 3 mg/kg"}

# ---- query compound ----
Give minimal effective dose (behaviors of compound-treated mice) of the following compound: NC[C@H]1OCCc2c(-c3cnccn3)cccc21 (single isomer, unassigned) [Compound 83, hydrochloride salt]
3 to 10 mg/kg

----------
tested on: behaviors of compound-treated mice; assay: Neuropharmacological Assay (SmartCube); type: in vivo; conditions: i.p. 15 min before behavioral test, most efficacious dose(s) of 3 doses
Counter-ions that a name gives are not always drawn.
metric_name: DP: anti-depressant (probability that activity matches class)

Some compounds with known DP: anti-depressant (probability that activity matches class) results, for comparison:
{"compound": "CNC[C@@H]1OCCc2c(-c3cccnc3)cccc21 (single isomer, unassigned) [Compound 7, bis-hydrochloride]", "result": "+++ (25% ≤ +++ <50%)"}
{"compound": "NCC1OCCc2c(-c3cncs3)cccc21 (stereo not drawn) [Compound 59, hydrochloride salt]", "result": "++++ (50% ≤ ++++)"}
{"compound": "CNC[C@@H]1OCCc2c(-c3cnccn3)cccc21 (single isomer, unassigned) [Compound 80]", "result": "+ (LOQ ≤ + <5%)"}
{"compound": "CNC[C@@H]1OCCc2c(-c3cn[nH]c3)cccc21 [Compound 118, hydrochloride salt]", "result": "++ (5% ≤ ++ <25%)"}
{"compound": "Cl.NC[C@@H]1OCCc2c(-c3ncco3)cccc21 [Compound 106]", "result": "++ (5% ≤ ++ <25%)"}
{"compound": "CNC[C@H]1OCCc2c(-c3ccncn3)cccc21 (single isomer, unassigned) [Compound 73, hydrochloride salt]", "result": "++++ (50% ≤ ++++)"}

# lookup: DP: anti-depressant (probability that activity matches class) of NC[C@H]1OCCc2c(-c3cocn3)cccc21 [Compound 101, HCl salt]
++ (5% ≤ ++ <25%)

# lookup: DP: anti-depressant (probability that activity matches class) of Cc1cc(-c2cccc3c2CCO[C@@H]3CN)ccn1 (single isomer, unassigned) [Compound 123, hydrochloride salt]
++++ (50% ≤ ++++)

# lookup: DP: anti-depressant (probability that activity matches class) of NC[C@H]1OCCc2c(-c3ncco3)cccc21 [Compound 107, hydrochloride salt]
+++ (25% ≤ +++ <50%)

----------
tested on: behaviors of compound-treated mice; experiment: Neuropharmacological Assay (SmartCube); type: in vivo; details: i.p. 15 min before behavioral test, most efficacious dose(s) of 3 doses
Structures can show the parent of a compound that is named as a salt.
metric_name: CE: cognitive enhancer (probability that activity matches class)

Some molecules with known CE: cognitive enhancer (probability that activity matches class) results, for comparison:
{"molecule": "NC[C@@H]1OCCc2ccc(-c3cccnc3)cc21 (single isomer, unassigned) [Compound 11, hydrochloride]", "study_system": "behaviors of compound-treated mice", "result": "+ (LOQ ≤ + <5%)"}
{"molecule": "NC[C@H]1OCCc2c(-c3cn[nH]c3)cccc21 [Compound 117, hydrochloride salt]", "study_system": "behaviors of compound-treated mice", "result": "+ (LOQ ≤ + <5%)"}
{"molecule": "NC[C@H]1OCCc2c(-c3cnoc3)cccc21 (single isomer, unassigned) [Compound 87, hydrochloride salt]", "study_system": "behaviors of compound-treated mice", "result": "+ (LOQ ≤ + <5%)"}
{"molecule": "CNC[C@H]1OCCc2c(-c3ccncc3)cccc21 [Compound 18, dihydrochloride salt]", "study_system": "behaviors of compound-treated mice", "result": "+ (LOQ ≤ + <5%)"}

# lookup: CE: cognitive enhancer (probability that activity matches class) of CNC[C@@H]1OCc2c(-c3cccnc3)cccc21 [Compound 33, hydrochloride salt]
+ (LOQ ≤ + <5%)

# lookup: CE: cognitive enhancer (probability that activity matches class) of CNCC1OCCc2c(-c3cnoc3)cccc21 (stereo not drawn) [Compound 65, hydrochloride salt]
++ (5% ≤ ++ <25%)

# lookup: CE: cognitive enhancer (probability that activity matches class) of NC[C@@H]1OCCc2c(-c3ccccn3)cccc21 (single isomer, unassigned) [Compound 45, hydrochloride]
+ (LOQ ≤ + <5%)

# lookup: CE: cognitive enhancer (probability that activity matches class) of NC[C@H]1OCCc2c(-c3ncc[nH]3)cccc21 [Compound 109, hydrochloride salt]
+ (LOQ ≤ + <5%)

# lookup: CE: cognitive enhancer (probability that activity matches class) of NC[C@@H]1OCCc2c(-c3cccnc3)cccc21 [Compound 15, hydrochloride]
+ (LOQ ≤ + <5%)

# lookup: CE: cognitive enhancer (probability that activity matches class) of NC[C@H]1OCCc2c(-c3cncnc3)cccc21 (single isomer, unassigned) [Compound 28, hydrochloride salt]
++ (5% ≤ ++ <25%)

# lookup: CE: cognitive enhancer (probability that activity matches class) of NC[C@H]1OCCc2c(-c3cnccn3)cccc21 (single isomer, unassigned) [Compound 83, hydrochloride salt]
+ (LOQ ≤ + <5%)

Source listed as patent US10780074B2.
